Cited source: ChEMBL document CHEMBL5244218

experiment: Cytotoxicity against African green monkey Vero cells; assay type: toxicity, cell-based; settings: chlorocebus sabaeus
measured metric: CC50 (µg/mL)
Response body: numeric value in µg/mL, unit text excluded.

[ask] Form field: reported CC50 of CO/N=C1\CCN(c2nc3c(cc2F)c(=O)c(C(=O)O)cn3C2CC2)CC1(C)CN (stereo unspecified)
[reply] 177

----------
Kindly supply the reported MBC values for the records listed here.
system: Staphylococcus aureus; experiment: Bactericidal activity against methicillin-resistant Staphylococcus aureus assessed as inhibition of microbial growth; assay type: functional

[ask] Form field: reported MBC of COc1ccc(C(=O)N2CCN(C(=O)N3CCN(c4ccc5c(=O)c(C(=O)O)cn(C6CC6)c5c4)CC3)CC2)cc1
[reply] ≥ 128 µg/mL

[ask] Form field: reported MBC of CCn1cc(C(=O)O)c(=O)c2cc(F)c(N3CCNCC3)cc21
[reply] 4 µg/mL

[ask] Form field: reported MBC of COc1ccccc1C(=O)N1CCN(C(=O)N2CCN(c3ccc4c(=O)c(C(=O)O)cn(C5CC5)c4c3)CC2)CC1
[reply] ≥ 128 µg/mL

[ask] Form field: reported MBC of COc1ccc(C(=O)N2CCN(C(=O)N3CCN(c4ccc5c(=O)c(C(=O)O)cn(C6CC6)c5c4)CC3)CC2)cc1OC
[reply] ≥ 128 µg/mL

[ask] Form field: reported MBC of O=C(O)c1cn(C2CC2)c2cc(N3CCNCC3)c(F)cc2c1=O
[reply] 0.031 µg/mL

[ask] Form field: reported MBC of COc1cc(OC)cc(C(=O)N2CCN(C(=O)N3CCN(c4ccc5c(=O)c(C(=O)O)cn(C6CC6)c5c4)CC3)CC2)c1
[reply] ≥ 128 µg/mL

[ask] Form field: reported MBC of COc1cccc(C(=O)N2CCN(C(=O)N3CCN(c4ccc5c(=O)c(C(=O)O)cn(C6CC6)c5c4)CC3)CC2)c1
[reply] ≥ 128 µg/mL

[ask] Form field: reported MBC of COc1ccc(C(=O)N2CCN(C(=O)N3CCN(c4ccc5c(=O)c(C(=O)O)cn(C6CC6)c5c4)CC3)CC2)c(OC)c1
[reply] ≥ 128 µg/mL

----------
test system: Staphylococcus aureus; assay: Antibacterial activity against methicillin-resistant Staphylococcus aureus isolates by two fold dilution method; format: functional
measured metric: MIC (µg/mL)
Response body: numeric value in µg/mL, unit text excluded.

[ask] Form field: reported MIC of CC1COc2c(N3CCN(C)CC3)c(F)cc3c(=O)c(C(=O)O)cn1c23 (stereo unspecified)
[reply] 1.56

[ask] Form field: reported MIC of CCn1cc(C(=O)O)c(=O)c2cc(F)c(N3CCN(C)CC3)cc21
[reply] 1.56

[ask] Form field: reported MIC of CC1CN(c2c(F)cc3c(=O)c(C(=O)O)c4scc5n4c3c2N(C)C5)CCN1C (stereo unspecified)
[reply] 0.05

[ask] Form field: reported MIC of CCNCC1CCN(c2c(F)cc3c(=O)c(C(=O)O)c4scc5n4c3c2NC5)C1 (stereo unspecified)
[reply] 0.05

[ask] Form field: reported MIC of O=C(O)c1c(=O)c2cc(F)c(N3CCOCC3)c3c2n2c(csc12)CN3
[reply] 0.05

[ask] Form field: reported MIC of C[C@H]1COc2c(N3CCN(C)CC3)c(F)cc3c(=O)c(C(=O)O)cn1c23.C[C@H]1COc2c(N3CCN(C)CC3)c(F)cc3c(=O)c(C(=O)O)cn1c23.O
[reply] 1.56
